Record set: IC50 | the protein given by its sequence | literature, multiple sources.
Sequence of the target: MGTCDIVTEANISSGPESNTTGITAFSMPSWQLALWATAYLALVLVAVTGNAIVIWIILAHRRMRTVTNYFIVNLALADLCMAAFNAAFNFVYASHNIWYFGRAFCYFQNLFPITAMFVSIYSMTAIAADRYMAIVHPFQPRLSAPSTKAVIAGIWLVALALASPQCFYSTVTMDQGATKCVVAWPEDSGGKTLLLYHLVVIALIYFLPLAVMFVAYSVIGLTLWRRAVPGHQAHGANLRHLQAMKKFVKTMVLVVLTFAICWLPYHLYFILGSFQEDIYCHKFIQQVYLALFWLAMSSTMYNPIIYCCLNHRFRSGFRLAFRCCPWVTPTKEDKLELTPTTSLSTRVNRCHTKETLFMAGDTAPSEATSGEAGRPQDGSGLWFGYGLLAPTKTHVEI
property_measured: IC50 (nM)

INSERT INTO results (compound, property_measured, lt_gt_eq, quantitative_readout) VALUES
  ('C[C@@H](O[C@H]1CC[C@@H]2CN(C3=CC(=O)CC3)C[C@H]2[C@@H]1c1ccc(F)cc1)c1cc(C(F)(F)F)cc(C(F)(F)F)c1', 'IC50', '=', 2400),
  ('O=C1CC[C@](CCN2CC(N3CCOCC3)C2)(c2ccc(Cl)c(Cl)c2)CN1CC1CC1', 'IC50', '=', 79.4),
  ('CS(=O)(=O)N1CC2(CCN(CCCC3(c4ccc(Cl)c(Cl)c4)CCC(=O)N(Cc4ccccc4)C3)CC2)c2ccccc21 (stereo not drawn)', 'IC50', '=', 2.2),
  ('Cc1cc(C)cc(COC(=O)C(Cc2c[nH]c3ccccc23)NC(=O)c2ccccc2)c1 (single isomer, unassigned)', 'IC50', '>', 5000),
  ('CC(=O)N[C@@H](Cc1csc2ccccc12)C(=O)OCc1cc(C(F)(F)F)cc(C(F)(F)F)c1 (racemic)', 'IC50', '>', 5000),
  ('COC1Cc2ccccc2C2(CCN(CCCc3ccccc3)CC2)O1 (stereo not drawn)', 'IC50', '>', 10000),
  ('O=C(c1ccccc1)N1CCCC(CCCN2CCC3(CCc4ccccc43)CC2)(c2ccc(Cl)c(Cl)c2)C1 (stereo not drawn)', 'IC50', '=', 204),
  ('O=C1CC[C@](CCN2CC(N3CCC(F)CC3)C2)(c2ccc(Cl)c(Cl)c2)CN1CC1CC1', 'IC50', '=', 10);

====

Record set: IC50 | the protein given by its sequence | literature, multiple sources.
Target chain: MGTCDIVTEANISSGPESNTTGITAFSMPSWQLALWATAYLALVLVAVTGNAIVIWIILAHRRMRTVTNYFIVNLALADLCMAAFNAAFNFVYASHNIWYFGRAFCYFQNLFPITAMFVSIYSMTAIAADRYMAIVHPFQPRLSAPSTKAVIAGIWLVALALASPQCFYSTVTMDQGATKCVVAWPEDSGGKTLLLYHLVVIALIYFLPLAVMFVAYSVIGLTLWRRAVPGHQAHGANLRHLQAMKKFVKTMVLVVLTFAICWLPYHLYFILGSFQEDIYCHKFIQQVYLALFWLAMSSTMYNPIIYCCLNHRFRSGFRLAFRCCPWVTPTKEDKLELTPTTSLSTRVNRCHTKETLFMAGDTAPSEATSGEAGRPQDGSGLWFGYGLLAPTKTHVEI
property_measured: IC50

INSERT INTO measurements (molecule, result) VALUES
  ('FC(F)(F)c1cc(CO[C@H]2CCCN[C@H]2c2ccccc2)cc(C(F)(F)F)c1', '> 1 µM'),
  ('Cc1cc(C)cc(COC(=O)[C@H](Cc2c[nH]c3ccccc23)NC(=O)OC(C)(C)C)c1', '> 5 µM'),
  ('CC(=O)N[C@@H](Cc1ccccc1)C(=O)OCc1cc(C)cc(C)c1', '> 5 µM'),
  ('CC(=O)N[C@@H](Cc1ccc(Cl)c(Cl)c1)C(=O)OCc1cc(C)cc(C)c1 (racemic)', '> 5 µM'),
  ('O=C(NCc1cc(C(F)(F)F)cc(C(F)(F)F)c1)[C@@H](NCCN1CCCCC1)c1ccsc1', '> 1 µM'),
  ('COC(=O)N[C@@H](Cc1c[nH]c2ccccc12)C(=O)OCc1cc(C)cc(C)c1', '> 5 µM');
